experimentalProtocol: Quantitative High-Throughput drug screen in 47 multiple myeloma cell lines against the NCATS MIPE library collection: KMS27_JCRB cell viability assay (AID 1918970); further: nearly all actives have a fitted effect of over 30% in size
particulars: KMS27 myeloma cells, CellTiter-Glo ATP viability, 48 h; series mostly up to 45.8 µM
Source text: PI: Beverly A. Mock Ph.D. Laboratory of Cancer Biology and Genetics, Center for Cancer Research, National Cancer Institute, National Institute of Health, Bethesda, Maryland […] 5; Detector; 425V; Luminescence; Viewlux PerkinElmer. […] 1. […] Briefly, the corresponding myeloma cell lines were screened in 1,536-well plates with 500 cells, 5-uL per well for inhibition of cell viability (assessed by measuring ATP levels with CellTiterGlo). […]
Results filed as inconclusive are left out. Activity calls are given as the source filed them. The call rests on the fitted dose curve; in most records, active means well fitted cell-killing curve with a large enough effect; inconclusive means small, poorly fitted or top-dose-only effect, or effect the other way; inactive means no such curve, though single readings can be large or run the other way.
Hi there, use one of these labels in your reply, thanks! active, inactive

Solved cases (5 shown):
{"columns": ["compoundStructure", "class"],
 "data": [
  ["CNC(=O)c1nn(C)c2c1C(C)(C)Cc1cnc(Nc3ccc(N4CCN(C)CC4)cc3)nc1-2", "active"],
  ["Cc1c(C)n(Cc2ccc(-c3ccccc3C(=O)O)cc2)c2ccc(C(=O)N[C@@H](C)c3ccc([N+](=O)[O-])cc3)cc12", "active"],
  ["O=C(O)CCCc1c[nH]c2ccccc12", "inactive"],
  ["COc1cc2c(Oc3ccc(-c4cnc(Nc5ccc(F)cc5)n(C)c4=O)cc3F)ccnc2cc1OCCCN1CCOCC1", "active"],
  ["COC(=O)[C@]12CCC(C)(C)C[C@@H]1[C@@H]1C(=O)C=C3[C@@]4(C)C=C(C#N)C(=O)C(C)(C)[C@@H]4CC[C@@]3(C)[C@]1(C)CC2", "active"]
]}

# outcome recorded in this test, key = `Cn1cncc1[C@@](N)(c1ccc(Cl)cc1)c1ccc2c(c1)c(-c1cccc(Cl)c1)cc(=O)n2C`
active

Record lookup: outcome of this test for `NC(=O)Nc1cc(-c2cccc(F)c2)sc1C(=O)N[C@H]1CCCNC1` ?
active

Could you please tell me the result logged for `O=C(C=Cc1cccnc1)NCCCCC1CCN(C(=O)c2ccccc2)CC1` in this assay?
active

Please share the test call associated with `COc1cc(=C2C=c3ccccc3=N2)[nH]c1=Cc1[nH]c(C)cc1C` .
active
